target: fusion protein PRQ
Sequence (chain, as listed by the source): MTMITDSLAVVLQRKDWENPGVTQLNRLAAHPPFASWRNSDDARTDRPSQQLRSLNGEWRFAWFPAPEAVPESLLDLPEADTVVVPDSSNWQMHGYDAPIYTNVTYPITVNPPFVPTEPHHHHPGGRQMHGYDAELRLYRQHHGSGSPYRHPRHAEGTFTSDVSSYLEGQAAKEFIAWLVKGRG

{"columns": ["PROTEIN", "relative cleavage efficiency"],
 "data": [
  ["OmpT protease variant OmpT D97S (protein) STETLSFTPDNINADISLGTLSGKTKERVYLAEEGGRKVSQLDWKFNNAAIIKGAINWDLMPQISIGAAGWTTLGSRGGNMVDQDWMDSSNPGTWTSESRHPDTQLNYANEFDLNIKGWLLNEPNYRLGLMAGYQESRYSFTARGGSYIYSSEEGFRDDIGSFPNGERAIGYKQRFKMPYIGLTGSYRYEDFELGGTFKYSGWVESSDNDEHYDPGKRITYRSKVKDQNYYSVAVNAGYYVTPNAKVYVEGAWNRVTNKKGNTSLYDHNNNTSDYSKNGAGIENYNFITTAGLKYTF", "less than 3%"],
  ["OmpT protease variant OmpT D97L (protein) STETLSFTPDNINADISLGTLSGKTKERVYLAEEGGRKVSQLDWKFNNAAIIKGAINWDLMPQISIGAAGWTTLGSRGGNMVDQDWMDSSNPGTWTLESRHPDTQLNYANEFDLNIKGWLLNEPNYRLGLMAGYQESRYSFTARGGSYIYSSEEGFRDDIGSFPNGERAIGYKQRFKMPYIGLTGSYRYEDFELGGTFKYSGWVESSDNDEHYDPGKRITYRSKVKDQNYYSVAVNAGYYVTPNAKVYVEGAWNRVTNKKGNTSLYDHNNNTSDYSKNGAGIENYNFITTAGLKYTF", "less than 3%"],
  ["OmpT protease variant OmpT D97A (protein) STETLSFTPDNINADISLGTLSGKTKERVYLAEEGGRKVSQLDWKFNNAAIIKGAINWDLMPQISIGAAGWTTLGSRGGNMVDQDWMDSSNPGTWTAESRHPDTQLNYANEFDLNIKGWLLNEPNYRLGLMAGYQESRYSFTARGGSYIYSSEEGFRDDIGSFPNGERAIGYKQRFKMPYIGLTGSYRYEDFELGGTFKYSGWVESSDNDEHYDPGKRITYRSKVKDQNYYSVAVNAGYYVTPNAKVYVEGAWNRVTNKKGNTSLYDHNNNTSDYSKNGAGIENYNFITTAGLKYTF", "less than 3%"],
  ["OmpT protease variant OmpT D97T (protein) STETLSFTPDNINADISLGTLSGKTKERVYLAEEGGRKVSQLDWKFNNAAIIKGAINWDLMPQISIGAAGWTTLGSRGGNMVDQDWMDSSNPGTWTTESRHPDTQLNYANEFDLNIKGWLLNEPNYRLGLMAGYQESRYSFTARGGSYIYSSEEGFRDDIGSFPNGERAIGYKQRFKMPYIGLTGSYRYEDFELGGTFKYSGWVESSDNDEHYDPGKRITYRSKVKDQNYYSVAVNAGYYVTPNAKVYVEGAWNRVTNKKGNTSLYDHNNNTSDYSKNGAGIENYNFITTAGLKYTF", "less than 3%"]
]}
